Values were extracted from ChEMBL document CHEMBL1944631.

METHOD: Solubility of the compound in phosphate buffered saline at pH 7.4
Format: physicochemical
ENDPOINT LABEL: solubility (µg/mL)

[P] CN[C@@H]1[C@H](O[C@@H]2OC[C@@H](O)[C@H](O)[C@H]2O)[C@@H](O)[C@H](O[C@H]2c3cc(C)c(C(=O)N[C@H](CO)C(=O)O)c(O)c3-c3c(cc4c(c3O)C(=O)c3cc(OC)cc(O)c3C4=O)[C@@H]2O)O[C@@H]1C
[Q] CN[C@@H]1[C@H](O[C@@H]2OC[C@@H](O)[C@H](O)[C@H]2O)[C@@H](O)[C@H](O[C@H]2c3cc(C)c(C(=O)N[C@H](C)C(=O)O)c(O)c3-c3c(cc4c(c3O)C(=O)c3cc(OC)cc(O)c3C4=O)[C@@H]2O)O[C@@H]1C
Lookup: Lab note: check whether P or Q shows the higher recorded solubility. Choose, then provide that item's label.
Found: P
